Listed molecules paired with reported melting point

Query block: Look up melting point: COCC(=O)Nc1nc(C(=O)NCCC#N)c(O)c2ncc(Cc3ccc(F)cc3)cc12
Result block: 173 to 175 °C

Query block: Entry under review: COCCNC(=O)c1nc(C(=O)OC)c2cc(Cc3ccc(F)cc3)cnc2c1O . Reported melting point?
Result block: 168 to 169 °C

Query block: # get_value(readout='melting point', item= COCCCNC(=O)c1nc(NC(=O)COC)c2cc(Cc3ccc(F)cc3)cnc2c1O )
Result block: 159 to 160 °C

====

Record: log10 IC50 reported on HIV integrase (Human immunodeficiency virus type 1 group M subtype B).
Values are log10 of IC50 in nM.

Some solved entries appear below for comparison.
{"columns": ["compound", "log10 IC50"],
 "data": [
  ["CNC(=O)C(=O)Nc1nc(C(=O)NCCOC)c(O)c2ncc(Cc3ccc(F)cc3)cc12", 1.62],
  ["COCC(=O)Nc1nc(C(=O)NCCN(C(C)C)C(C)C)c(O)c2ncc(Cc3ccc(F)cc3)cc12", 2.15],
  ["CCC(O)CNC(=O)c1nc(C(=O)NCCOC)c2cc(Cc3ccc(F)cc3)cnc2c1O (centres unmarked)", 1.56],
  ["COCCNC(=O)c1nc(C)c2cc(Cc3ccc(F)cc3)cnc2c1O", 1.30],
  ["Cc1nc(C(=O)NN(C)C)c(O)c2ncc(Cc3ccc(F)cc3)cc12", 1.23],
  ["COCCNC(=O)c1nc(C(=O)OC)c2cc(Cc3ccc(F)cc3)cnc2c1O", 0.76]
]}

Query block: Enter reported log10 IC50 observed with HIV integrase (Human immunodeficiency virus type 1 group M subtype B) for COCC(=O)Nc1nc(C(=O)NCCOC(C)C)c(O)c2ncc(Cc3ccc(F)cc3)cc12
Result block: 1.50

Query block: What value of log10 IC50 on HIV integrase (Human immunodeficiency virus type 1 group M subtype B) does COCCCNC(=O)c1nc(NC(=O)COC)c2cc(Cc3ccc(F)cc3)cnc2c1O have?
Result block: 1.60

Query block: Provide the documented log10 IC50 with HIV integrase (Human immunodeficiency virus type 1 group M subtype B) as the system for COCCN(C)C(=O)c1nc(NC(=O)COC)c2cc(Cc3ccc(F)cc3)cnc2c1O
Result block: 1.76

Query block: Query the reported log10 IC50 for HIV integrase (Human immunodeficiency virus type 1 group M subtype B); item: COCC(=O)Nc1nc(C(=O)NC(C)CO)c(O)c2ncc(Cc3ccc(F)cc3)cc12 (centres unmarked)
Result block: 1.70

Query block: Form: Entry = CC(O)c1nc(C(=O)NN(C)C)c(O)c2ncc(Cc3ccc(F)cc3)cc12 (centres unmarked) | System = HIV integrase (Human immunodeficiency virus type 1 group M subtype B) | log10 IC50 = ____
Result block: 1.65
